What follows is a record of pIC50 for UniProt:P08631.
Sequence (P08631 whole entry): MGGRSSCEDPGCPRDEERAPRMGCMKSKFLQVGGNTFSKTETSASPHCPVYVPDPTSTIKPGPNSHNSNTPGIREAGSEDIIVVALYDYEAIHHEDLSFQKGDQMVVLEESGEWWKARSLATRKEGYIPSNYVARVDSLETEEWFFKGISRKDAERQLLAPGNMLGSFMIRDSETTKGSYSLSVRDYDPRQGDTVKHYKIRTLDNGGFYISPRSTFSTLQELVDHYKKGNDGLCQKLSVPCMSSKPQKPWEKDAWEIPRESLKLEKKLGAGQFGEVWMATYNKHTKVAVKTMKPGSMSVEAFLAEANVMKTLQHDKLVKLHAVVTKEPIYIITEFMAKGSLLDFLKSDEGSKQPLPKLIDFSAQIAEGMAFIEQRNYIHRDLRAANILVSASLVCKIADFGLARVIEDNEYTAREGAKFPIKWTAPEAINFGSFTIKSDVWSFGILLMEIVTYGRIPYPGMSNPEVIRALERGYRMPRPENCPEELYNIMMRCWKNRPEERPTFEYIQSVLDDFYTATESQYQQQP
pIC50: −log10 of the molar value.

Examples with answers:
                                   compound  system_under_test  reported_value
0  CC(=O)NS(=O)(=O)c1ccc(Nc2ncnc(-n3c(N)nc4ccccc43)n2)cc1     UniProt:P08631    5.08 to 5.25
1  COc1cc(Nc2ncnc(-n3c(NCc4ccc(Cl)cc4F)nc4ccccc43)n2)cc(OC)c1OC     UniProt:P08631          < 5.08

Problem: GET pIC50 where system = UniProt:P08631 and item = `COc1cc(Nc2ncnc(Nc3ccc(Br)c4ccccc34)n2)cc(OC)c1OC`
Solution: < 5.03

Problem: GET pIC50 where system = UniProt:P08631 and item = `COc1cc(Nc2ncnc(Nc3ccc(C)c(O)c3)n2)cc(OC)c1OC`
Solution: 5.20 to 5.98

Problem: GET pIC50 where system = UniProt:P08631 and item = `COC(=O)c1sccc1Nc1ncnc(Nc2cc(OC)c(OC)c(OC)c2)n1`
Solution: < 4.97

Problem: GET pIC50 where system = UniProt:P08631 and item = `COc1cc(Nc2ncnc(-c3ccccc3)n2)cc(OC)c1OC`
Solution: < 4.88

Problem: GET pIC50 where system = UniProt:P08631 and item = CCC(Nc1nc2ccccc2n1-c1ncnc(Nc2cc(OC)c(OC)c(OC)c2)n1)c1ccccc1 (centres unmarked)
Solution: < 5.06

Problem: GET pIC50 where system = UniProt:P08631 and item = `COc1cc(Nc2ncnc(Nc3ccc4c(c3)Cc3ccccc3-4)n2)cc(OC)c1OC`
Solution: < 4.99
